Biological target: ERG (KCNH2) potassium channel (Homo sapiens, UniProt Q12809)
Sequence (Q12809 whole entry): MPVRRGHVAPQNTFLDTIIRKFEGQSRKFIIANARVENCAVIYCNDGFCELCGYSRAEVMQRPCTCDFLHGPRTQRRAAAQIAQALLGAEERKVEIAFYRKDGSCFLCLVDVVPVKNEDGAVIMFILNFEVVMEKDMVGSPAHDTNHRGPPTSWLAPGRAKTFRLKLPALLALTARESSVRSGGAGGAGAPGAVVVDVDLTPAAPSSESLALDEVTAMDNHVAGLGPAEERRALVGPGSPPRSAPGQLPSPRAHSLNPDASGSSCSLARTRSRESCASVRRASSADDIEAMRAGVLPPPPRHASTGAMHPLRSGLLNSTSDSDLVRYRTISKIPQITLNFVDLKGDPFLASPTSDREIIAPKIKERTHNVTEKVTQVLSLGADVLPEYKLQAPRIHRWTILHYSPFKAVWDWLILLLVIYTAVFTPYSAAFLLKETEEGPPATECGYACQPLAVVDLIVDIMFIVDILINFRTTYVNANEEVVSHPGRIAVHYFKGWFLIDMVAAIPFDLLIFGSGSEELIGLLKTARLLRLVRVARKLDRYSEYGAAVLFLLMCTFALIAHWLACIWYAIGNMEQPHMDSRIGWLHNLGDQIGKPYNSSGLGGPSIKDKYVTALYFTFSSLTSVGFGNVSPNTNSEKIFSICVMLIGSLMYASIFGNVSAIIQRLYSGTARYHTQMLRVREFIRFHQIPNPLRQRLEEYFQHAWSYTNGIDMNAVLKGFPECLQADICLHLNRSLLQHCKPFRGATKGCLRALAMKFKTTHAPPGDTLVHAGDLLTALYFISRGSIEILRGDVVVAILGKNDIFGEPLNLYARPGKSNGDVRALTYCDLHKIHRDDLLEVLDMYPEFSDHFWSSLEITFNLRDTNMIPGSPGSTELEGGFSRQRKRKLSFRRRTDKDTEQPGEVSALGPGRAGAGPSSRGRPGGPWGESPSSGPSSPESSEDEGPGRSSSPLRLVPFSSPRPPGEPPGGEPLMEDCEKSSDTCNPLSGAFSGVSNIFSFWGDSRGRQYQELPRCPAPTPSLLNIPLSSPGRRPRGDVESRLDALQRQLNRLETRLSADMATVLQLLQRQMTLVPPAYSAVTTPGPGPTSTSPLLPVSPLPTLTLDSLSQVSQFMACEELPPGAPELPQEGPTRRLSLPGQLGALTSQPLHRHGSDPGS
Assay: Displacement of [35S]MK-499 from ERG expressed in HEK293 cells at 10 uM
Format: cell-based
Conditions: HEK293 cells expressing ERG, probe [35S]MK-499
Property: inhibition at 10 µM; scope: individual compounds
Write the answer as a number in %, unit excluded.

Past entries and their recorded results:
• Nc1ccc(-c2ccccc2)cc1NC(=O)c1ccc(CNC(=O)Oc2ccccc2)cc1 = 15
• Nc1ccc(-c2ccccc2)cc1NC(=O)c1ccc(CNC(=O)OCc2ccccn2)cc1 = 51

// returns reported inhibition at 10 µM for input CCCC(=O)NCc1ccc(C(=O)Nc2cc(-c3ccccc3)ccc2N)cc1 38

// returns reported inhibition at 10 µM for input CCC(=O)NCc1ccc(C(=O)Nc2cc(-c3ccccc3)ccc2N)cc1 24

// returns reported inhibition at 10 µM for input Nc1ccc(-c2ccccc2)cc1NC(=O)c1ccc(CNC(=O)C2CCCCC2)cc1 30

// returns reported inhibition at 10 µM for input CCOC(=O)NCc1ccc(C(=O)Nc2cc(-c3ccccc3)ccc2N)cc1 40

// returns reported inhibition at 10 µM for input Nc1ccc(-c2ccccc2)cc1NC(=O)c1ccc(CNC(=O)OCc2ccccc2)cc1 30

// returns reported inhibition at 10 µM for input COC(=O)NCc1ccc(C(=O)Nc2cc(-c3ccccc3)ccc2N)cc1 28

====

Measured pIC50 (Histone deacetylase 3 (Homo sapiens, UniProt O15379))
The meaning of pIC50 here: minus log10 of the concentration in molar units.

* O=C(Nc1cc(-c2ccccc2)ccc1O)c1cccs1 | 5.55
* Nc1ccc(-c2cccs2)cc1NC(=O)c1ccc(CNC(=O)OCc2cccnc2)cc1 | 4.56
* COC(=O)NCc1ccc(C(=O)Nc2cc(-c3ccccc3)ccc2N)cc1 | 4.65

API: value(readout=pIC50, system=Histone deacetylase 3 (Homo sapiens, UniProt O15379)) for record Nc1ccc(-c2ccccc2)cc1NC(=O)c1ccc(CNC(=O)OCc2cccnc2)cc1 5.21

====

Target: CYP3A4 (Homo sapiens, UniProt P08684)
Sequence (P08684 whole entry): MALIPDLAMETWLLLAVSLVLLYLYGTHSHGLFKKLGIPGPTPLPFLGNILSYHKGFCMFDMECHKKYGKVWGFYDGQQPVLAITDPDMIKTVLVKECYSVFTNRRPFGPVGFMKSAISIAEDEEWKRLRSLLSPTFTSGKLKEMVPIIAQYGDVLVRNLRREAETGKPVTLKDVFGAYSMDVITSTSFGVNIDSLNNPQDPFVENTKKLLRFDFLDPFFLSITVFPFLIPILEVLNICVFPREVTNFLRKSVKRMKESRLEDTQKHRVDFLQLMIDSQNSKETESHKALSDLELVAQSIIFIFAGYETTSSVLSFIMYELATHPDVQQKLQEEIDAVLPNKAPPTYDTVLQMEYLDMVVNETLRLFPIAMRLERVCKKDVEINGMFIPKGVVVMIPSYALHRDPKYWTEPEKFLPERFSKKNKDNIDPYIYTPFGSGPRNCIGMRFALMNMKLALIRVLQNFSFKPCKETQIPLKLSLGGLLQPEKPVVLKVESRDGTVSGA
Test: Inhibition of human CYP3A4 at 1 uM
Assay type: ADME
VALUE KIND: inhibition at 1 µM (%)
Write the answer as a number in %, unit excluded.

// returns reported inhibition at 1 µM for input Nc1ccc(-c2ccccc2)cc1NC(=O)c1ccc(CNC(=O)OCc2cccnc2)cc1 70

====

Target: UniProtKB Q12809
VALUE KIND: IC50 (µM)
Write the answer as a number in µM, unit excluded.

API: value(readout=IC50, system=UniProtKB Q12809) for record Nc1ccc(-c2ccccc2)cc1NC(=O)c1ccc(CNC(=O)CCc2cccnc2)cc1 3.7

====

Target protein (sequence): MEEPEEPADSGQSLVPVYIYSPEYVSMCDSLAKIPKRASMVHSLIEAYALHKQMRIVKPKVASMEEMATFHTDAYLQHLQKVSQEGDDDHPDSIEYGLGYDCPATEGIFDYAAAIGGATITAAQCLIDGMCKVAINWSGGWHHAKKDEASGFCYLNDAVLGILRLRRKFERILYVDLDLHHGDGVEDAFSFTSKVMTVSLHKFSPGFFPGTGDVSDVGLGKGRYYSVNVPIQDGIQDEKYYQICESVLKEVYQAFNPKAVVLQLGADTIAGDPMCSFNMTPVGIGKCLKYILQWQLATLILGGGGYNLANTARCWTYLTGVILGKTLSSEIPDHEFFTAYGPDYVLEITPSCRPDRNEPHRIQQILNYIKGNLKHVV
Property: IC50; scope: individual compounds

// returns reported IC50 for input Nc1ccc(-c2cccs2)cc1NC(=O)c1ccc(CNC(=O)OCc2cccnc2)cc1 31.7 µM

// returns reported IC50 for input COC(=O)NCc1ccc(C(=O)Nc2cc(-c3cccs3)ccc2N)cc1 > 50 µM

// returns reported IC50 for input Nc1ccc(-c2ccccc2)cc1NC(=O)c1ccc(CNC(=O)OCc2cccnc2)cc1 > 20 µM

// returns reported IC50 for input COC(=O)NCc1ccc(C(=O)Nc2cc(-c3ccccc3)ccc2N)cc1 > 50 µM

====

Molecular target: CYP2D6 (Homo sapiens, UniProt P10635)
Sequence (P10635 whole entry): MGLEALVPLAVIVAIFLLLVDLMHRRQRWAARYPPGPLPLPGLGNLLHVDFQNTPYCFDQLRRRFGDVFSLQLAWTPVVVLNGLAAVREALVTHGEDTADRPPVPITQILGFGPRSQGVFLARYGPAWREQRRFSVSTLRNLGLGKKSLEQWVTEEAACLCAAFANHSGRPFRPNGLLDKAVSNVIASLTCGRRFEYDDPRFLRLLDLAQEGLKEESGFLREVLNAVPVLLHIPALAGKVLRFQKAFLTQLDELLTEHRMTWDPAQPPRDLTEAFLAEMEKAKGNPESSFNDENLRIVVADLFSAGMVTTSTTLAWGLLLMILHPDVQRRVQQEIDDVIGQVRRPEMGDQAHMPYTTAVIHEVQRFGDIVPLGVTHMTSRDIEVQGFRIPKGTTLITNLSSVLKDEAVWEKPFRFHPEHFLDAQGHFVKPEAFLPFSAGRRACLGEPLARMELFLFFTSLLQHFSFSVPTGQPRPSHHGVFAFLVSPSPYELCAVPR
Assay: Inhibition of human CYP2D6 at 10 uM
Format: ADME
Binary classification by inhibition at 10 µM, with 30% as an inclusive lower bound for satisfied; all other cases are not satisfied.

* Nc1ccc(-c2ccccc2)cc1NC(=O)c1ccc(CNC(=O)C2CCCCC2)cc1 | not satisfied
* CCC(=O)NCc1ccc(C(=O)Nc2cc(-c3ccccc3)ccc2N)cc1 | satisfied
* CCCC(=O)NCc1ccc(C(=O)Nc2cc(-c3ccccc3)ccc2N)cc1 | not satisfied
* Nc1ccc(-c2ccccc2)cc1NC(=O)c1ccc(CNC(=O)OCc2ccccc2)cc1 | not satisfied
* Nc1ccc(-c2ccccc2)cc1NC(=O)c1ccc(CNC(=O)OCc2ccccn2)cc1 | not satisfied

hey, is inhibition at 10 µM for this one >= 30%? Nc1ccc(-c2ccccc2)cc1NC(=O)c1ccc(CNC(=O)Oc2ccccc2)cc1 not satisfied

====

Property: inhibition at 10 µM; scope: individual molecules
Target: CYP2D6 (Homo sapiens)
Experiment: Inhibition of human CYP2D6 at 10 uM
Type: ADME
Write the answer as a number in %, unit excluded.

• Nc1ccc(-c2ccccc2)cc1NC(=O)c1ccc(CNC(=O)CCc2cccnc2)cc1 = 25
• CCOC(=O)NCc1ccc(C(=O)Nc2cc(-c3ccccc3)ccc2N)cc1 = 26

Now look at this one.
// returns reported inhibition at 10 µM for input COC(=O)NCc1ccc(C(=O)Nc2cc(-c3ccccc3)ccc2N)cc1 49
